- Test system: rodent lifetime carcinogenesis bioassay, tumor incidence TD50
- method: carcinogenic potency in animals, long-term in vivo studies, CPDB compilation (AID 1745844)
- condition_details: rat; strain Fischer 344; males; in feed; site: liver; lesion: hepatocellular carcinoma; dosed 53 weeks; study length 63 weeks
readout_label: TD50 (mg/kg/day)
Report the figure in mg/kg/day without appending any unit label.

Ask: What TD50 value was documented for this compound, Cn1c(N)nc2c3cccnc3ccc21 ?
Reply: 10.5

====

Field: TD50. Provide a value for each of the compounds that follow.
- Test system: rodent lifetime carcinogenesis bioassay, tumor incidence TD50
- method: carcinogenic potency in animals, long-term in vivo studies, CPDB compilation (AID 1745844)
- condition_details: mouse; strain B6C3F1; females; inhaled; site: liver; lesion: hepatocellular adenoma; dosed 102 weeks; study length 104 weeks

Ask: I'd like to know its TD50. The compound in question is ClCCl
Reply: 3170 mg/kg/day

Ask: Given C1CO1 , state its recorded TD50.
Reply: 75.8 mg/kg/day

The measured values listed here are drawn from PubChem BioAssay AID1745844.
